target: fused TvG6PD::6PGL enzyme (Trichomonas vaginalis); test: Time-course inactivation, second-order rate constant (k2); assay type: biochemical; conditions: read-out: second-order rate constant of inactivation (k2)
Sequence (A2EC78 entry or part of it): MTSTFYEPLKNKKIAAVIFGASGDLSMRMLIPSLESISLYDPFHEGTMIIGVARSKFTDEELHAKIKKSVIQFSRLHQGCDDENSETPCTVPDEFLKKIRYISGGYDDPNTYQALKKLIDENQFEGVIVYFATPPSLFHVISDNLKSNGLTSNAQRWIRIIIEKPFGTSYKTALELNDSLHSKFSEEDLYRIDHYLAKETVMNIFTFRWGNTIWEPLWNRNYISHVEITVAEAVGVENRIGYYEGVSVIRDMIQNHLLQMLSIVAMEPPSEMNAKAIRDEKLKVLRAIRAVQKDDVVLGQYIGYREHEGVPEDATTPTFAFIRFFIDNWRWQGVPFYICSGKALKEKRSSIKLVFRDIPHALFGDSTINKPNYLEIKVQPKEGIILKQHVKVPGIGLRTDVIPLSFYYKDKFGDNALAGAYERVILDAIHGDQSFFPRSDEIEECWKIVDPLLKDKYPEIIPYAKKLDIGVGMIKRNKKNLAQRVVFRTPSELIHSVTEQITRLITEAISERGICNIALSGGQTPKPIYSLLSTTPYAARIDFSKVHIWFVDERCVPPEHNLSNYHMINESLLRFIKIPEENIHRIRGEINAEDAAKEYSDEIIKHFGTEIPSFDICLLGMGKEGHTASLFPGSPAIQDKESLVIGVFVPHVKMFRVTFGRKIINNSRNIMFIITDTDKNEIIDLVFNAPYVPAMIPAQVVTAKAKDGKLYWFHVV

| SMILES | STUDY_TARGET | kinact/KI [M⁻¹ s⁻¹] |
| --- | --- | --- |
| O=C(Nc1ccc(Cl)cc1)Nc1ncc([N+](=O)[O-])s1 | fused TvG6PD::6PGL enzyme (Trichomonas vaginalis) | 0.66 |
| COc1ccc(NC(=O)Nc2ncc([N+](=O)[O-])s2)cc1 | fused TvG6PD::6PGL enzyme (Trichomonas vaginalis) | 0.38 |
| COc1cc(CCC(=O)O)ccc1OCc1ccc(-c2ccccc2C#N)cc1 | fused TvG6PD::6PGL enzyme (Trichomonas vaginalis) | 0.33 |
| O=C(COc1ccc(/C=C2\SC(=O)NC2=O)cc1)NC1CCN(Cc2ccccc2)CC1 | fused TvG6PD::6PGL enzyme (Trichomonas vaginalis) | 0.26 |
